Numbers sourced from PubChem BioAssay AID1159580.

TEST PROTOCOL: chemical genetic growth profiling, strain panel (AID 1159580);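 also: tested at 20 µM; growth read once vehicle control cultures reached saturation at 30 °C; 1 = growth at the plate median or of vehicle wells; lower values mean less growth of the strain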
ASSAY SETUP: S. cerevisiae deletion strains, growth OD, locus YNR052C, strain pop2
Out of some 5,500 compounds screened, about 2,000 (36%) were called active. Another 18% or so got no clear call; they are omitted. Rule as the data show it: active = normalized growth mostly below about 0.91 (no sharp cut-off); inconclusive = no clear call, values can overlap the other calls; inactive = mostly above about 0.92. The list shows a part of the results.
Returns: one label drawn from active, inactive

CC(=O)O[C@H]1C(=O)[C@@]2(C)C([C@H](OC(=O)c3ccccc3)[C@]3(O)C[C@H](OC(=O)[C@H](O)[C@@H](NC(=O)c4ccccc4)c4ccccc4)C(C)=C1C3(C)C)[C@]1(OC(C)=O)CO[C@@H]1C[C@@H]2O (some centres undefined) | active
O[C@H]1C=C2CCN3Cc4cc5c(cc4C(C23)[C@@H]1O)OCO5 (some centres undefined) | active
CC1(C)S[C@@H]2[C@H](NC(=O)[C@H](NC(=O)N3CCNC3=O)c3ccccc3)C(=O)N2C1C(=O)O (some centres undefined) | inactive
CC1(C)C2CC[C@]3(C)C(C(=O)C=C4[C@@H]5C[C@@](C)(C(=O)O)CC[C@]5(C)CC[C@]43C)[C@@]2(C)CC[C@@H]1OC(=O)CCC(=O)O (some centres undefined) | inactive
CN1Cc2c(ccc3c2OCO3)C2C(O)Cc3cc4c(cc3C21)OCO4 (centres undefined) | inactive
Cc1ccc(O)cc1 | inactive

Task item: Identify the outcome logged in this assay for the compound shown: `NC(N)=NOCC[C@H](N)C(=O)O`
Reply: inactive

Task item: Identify the outcome logged in this assay for the compound shown: `COC(=O)COc1cc(Cl)c(Cl)cc1Cl`
Reply: inactive

Task item: Identify the outcome logged in this assay for the compound shown: `C/C=C(/C(=C/C)c1ccc(O)cc1)c1ccc(O)cc1`
Reply: active

====

TEST PROTOCOL: chemical genetic growth profiling, strain panel (AID 1159580);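 also: tested at 20 µM; growth read once vehicle control cultures reached saturation at 30 °C; 1 = growth at the plate median or of vehicle wells; lower values mean less growth of the strain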
ASSAY SETUP: S. cerevisiae deletion strains, growth OD, locus YPL204W, strain HRR25
Hit rate of the full screen: of about 5,500 compounds, about 2,000 (36%) were called active. Roughly 18% stayed inconclusive and do not appear here. Rule as the data show it: active = normalized growth mostly below about 0.91 (no sharp cut-off); inconclusive = no clear call, values can overlap the other calls; inactive = mostly above about 0.92. This is one part of the list.
Returns: one label drawn from true (active), false (inactive)

// below: answered compounds
O=C(CCN1CCCCC1)c1ccc(-c2ccccc2)cc1 | false
Cc1c(Cl)cccc1NC(=S)N1CCCN(c2ccc(C(F)(F)F)cc2[N+](=O)[O-])CC1 | false
C=CC(=O)N1CCc2cc([N+](=O)[O-])ccc21 | true

Task item: Identify the outcome logged in this assay for the compound shown: `Cc1c(Cl)cccc1NC(=S)N1CCCN(c2nc3ccc(Cl)cc3s2)CC1`
Reply: false

Task item: Identify the outcome logged in this assay for the compound shown: `CC(C)(C)C1=NN(c2nc3ccc(Cl)cc3s2)C(=O)C1`
Reply: true

Task item: Identify the outcome logged in this assay for the compound shown: `N#Cc1c(Cl)c(Cl)c(Cl)c(Cl)c1C#N`
Reply: true

====

# normalized growth per record follows
TEST PROTOCOL: chemical genetic growth profiling, strain panel (AID 1159580);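 also: tested at 20 µM; growth read once vehicle control cultures reached saturation at 30 °C; 1 = growth at the plate median or of vehicle wells; lower values mean less growth of the strain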
ASSAY SETUP: S. cerevisiae deletion strains, growth OD, locus YPR119W, strain clb2, active compounds read low
Among all 5,500 compounds or so, about 2,000 (36%) were called active. Roughly 18% stayed inconclusive and do not appear here. The list shows a part of the results.
API doc: respond with a numeric literal and nothing else, no unit.

Task item: Query normalized growth for `C[C@@H]1O[C@@H](O[C@H]2[C@@H](Oc3cc(O)c4c(c3)O[C@H](c3ccc(O)cc3)CC4=O)O[C@H](CO)[C@@H](O)[C@@H]2O)[C@H](O)[C@H](O)[C@H]1O`
Reply: 1

Task item: Query normalized growth for CC(=O)O[C@H]1C(=O)[C@@]2(C)C([C@H](OC(=O)c3ccccc3)[C@]3(O)C[C@H](OC(=O)[C@H](O)[C@@H](NC(=O)c4ccccc4)c4ccccc4)C(C)=C1C3(C)C)[C@]1(OC(C)=O)CO[C@@H]1C[C@@H]2O (stereo not given in full)
Reply: 1.03

Task item: Query normalized growth for CNC1(C)C2CCC(C2)C1(C)C (stereo not given)
Reply: 0.993

Task item: Query normalized growth for `O=C1C[C@@H](c2ccc(O)cc2)Oc2cc(O)cc(O)c21`
Reply: 1.01

Task item: Query normalized growth for `O=C(O)c1ccccc1OP(=O)(O)O`
Reply: 0.993
